Biological target: ALDH2*1/*2 (Homo sapiens, UniProt P05091, E504K)
Construct: His-tag; made in house; host or cells: E. coli BL21 (pETDuet-1 co-expression)
Assay: ALDH2 enzymatic activity, NADH accumulation at 340 nm, acetaldehyde substrate, heterozygous form
Assay type: biochemical
Settings: 5 μM compound; relative to baseline enzymatic activity (100%)
# activity at 5 µM per entry
Note: unit % is implicit; provide only the numeric part.

Answered cases to consult:
>  <Compound>
COc1ccc(CNC(=O)c2cc(-c3cccc(F)c3CO)ccc2OCC2CC2)cc1F

>  <Units text>
%

>  <activity at 5 µM>
198

$$$$
>  <Compound>
COc1ccc(CNC(=O)c2cc(-c3ncccc3CO)ccc2OCC2CC2)cc1F

>  <Units text>
%

>  <activity at 5 µM>
260

$$$$
>  <Compound>
COc1ccc(CNC(=O)c2cc(-c3ccncc3CO)cnc2OCC2CC2)cc1F

>  <Units text>
%

>  <activity at 5 µM>
236

$$$$

Problem: Reported activity at 5 µM, compound COc1ccc(CNC(=O)c2cc(-c3ccccc3CO)ccc2OCC2CC2)cc1F : ____
Solution: 338

Problem: Reported activity at 5 µM, compound COc1ccc(CNC(=O)c2cc(-c3cccc(F)c3CO)cnc2OCC2CC2)cc1F : ____
Solution: 145

Problem: Reported activity at 5 µM, compound COc1ccc(CNC(=O)c2cc(-c3ccc(F)cc3CO)cnc2OCC2CC2)cc1F : ____
Solution: 338

Problem: Reported activity at 5 µM, compound COc1ccc(CNC(=O)c2cc(-c3cc(F)ccc3CO)cnc2OCC2CC2)cc1F : ____
Solution: 218

Problem: Reported activity at 5 µM, compound COc1ccc(CNC(=O)c2cc(-c3cnccc3CO)ccc2OCC2CC2)cc1F : ____
Solution: 382

Problem: Reported activity at 5 µM, compound COc1ccc(CNC(=O)c2cc(-c3sccc3CO)cnc2OCC2CC2)cc1F : ____
Solution: 238

Problem: Reported activity at 5 µM, compound COc1ccc(CNC(=O)c2cc(-c3c(F)cccc3CO)ccc2OCC2CC2)cc1F : ____
Solution: 194

Problem: Reported activity at 5 µM, compound COc1ccc(CNC(=O)c2cc(-c3cscc3CO)ccc2OCC2CC2)cc1F : ____
Solution: 349

Problem: Reported activity at 5 µM, compound COc1ccc(CNC(=O)c2cc(-c3ccc(F)cc3CO)ccc2OCC2CC2)cc1F : ____
Solution: 252

###

Molecular target: ALDH2*1/*1 (Homo sapiens, UniProt P05091)
Construct: His-tag (N); made in house; host or cells: E. coli BL21 (pTrcHis vector)
Experiment: ALDH2 enzymatic activity, NADH accumulation at 340 nm, acetaldehyde substrate, wild type
Format: biochemical
Details: 10 μM compound; relative to baseline enzymatic activity (100%)
Recorded metric: activity at 10 µM
In your response, put the unit directly after the numeric value.

>  <Compound>
COc1ccc(CNC(=O)c2cc(-c3ccc(F)cc3CO)cnc2OCC2CC2)cc1F

>  <Recorded metric>
activity at 10 µM

>  <Measurement>
300%

$$$$

Problem: Reported activity at 10 µM, compound COc1ccc(CNC(=O)c2cc(-c3cc(F)ccc3CO)cnc2OCC2CC2)cc1F : ____
Solution: 308%

Problem: Reported activity at 10 µM, compound COc1ccc(CNC(=O)c2cc(-c3ccncc3CO)cnc2OCC2CC2)cc1F : ____
Solution: 305%

###

Biological target: ALDH2 (Homo sapiens, UniProt P05091)
Construct: His-tag (N); made in house; host or cells: E. coli BL21
Test: ALDH2 activity with 20 μM of the compound (Table 3)
Assay type: biochemical
Conditions: 20 μM compound
# activity at 20 µM per entry

Answered cases to consult:
>  <Compound>
COc1ccc(CNC(=O)c2cc(-c3ccccc3CN(C)C)cnc2OCC2CC2)cc1F

>  <Assay system>
ALDH2 (Homo sapiens, UniProt P05091)

>  <Recorded metric>
activity at 20 µM

>  <Measurement>
100 to 150%

$$$$
>  <Compound>
COc1ccc(CNC(=O)c2cc(-c3c(CO)ccc[n+]3[O-])ccc2OCC2CC2)cc1F

>  <Assay system>
ALDH2 (Homo sapiens, UniProt P05091)

>  <Recorded metric>
activity at 20 µM

>  <Measurement>
150 to 250%

$$$$
>  <Compound>
COc1ccc(CNC(=O)c2cc(-c3ncccc3CO)ccc2OC2CCCCCC2)cc1F

>  <Assay system>
ALDH2 (Homo sapiens, UniProt P05091)

>  <Recorded metric>
activity at 20 µM

>  <Measurement>
> 250%

$$$$
>  <Compound>
COc1ccc(CNC(=O)c2cc(-c3ncccc3CO)ccc2OC2CCCCCCC2)cc1F

>  <Assay system>
ALDH2 (Homo sapiens, UniProt P05091)

>  <Recorded metric>
activity at 20 µM

>  <Measurement>
150 to 250%

$$$$
>  <Compound>
COc1c(F)cc(CNC(=O)c2cc(-c3ncccc3CO)ccc2OCC2CC2)cc1F

>  <Assay system>
ALDH2 (Homo sapiens, UniProt P05091)

>  <Recorded metric>
activity at 20 µM

>  <Measurement>
150 to 250%

$$$$
>  <Compound>
COc1ccc(CNC(=O)c2cc(-c3c[nH]nc3CO)ccc2OCC2CC2)cc1F

>  <Assay system>
ALDH2 (Homo sapiens, UniProt P05091)

>  <Recorded metric>
activity at 20 µM

>  <Measurement>
> 250%

$$$$
>  <Compound>
CCCOc1ccc(-c2ncccc2CO)cc1C(=O)NCc1ccc(OC)c(F)c1

>  <Assay system>
ALDH2 (Homo sapiens, UniProt P05091)

>  <Recorded metric>
activity at 20 µM

>  <Measurement>
150 to 250%

$$$$
>  <Compound>
COc1ccc(CNC(=O)c2cc(-c3cscc3CO)cnc2OCC2CC2)cc1F

>  <Assay system>
ALDH2 (Homo sapiens, UniProt P05091)

>  <Recorded metric>
activity at 20 µM

>  <Measurement>
> 250%

$$$$

Problem: Find the measured activity at 20 µM: item COc1ccc(CNC(=O)c2cc(-c3cnccc3CO)ccc2OC2CC2)cc1F , target or system ALDH2 (Homo sapiens, UniProt P05091).
Solution: 150 to 250%

Problem: Find the measured activity at 20 µM: item [2H]C(O)c1cccnc1-c1ccc(OCC2CC2)c(C(=O)NCc2ccc(OC)c(F)c2)c1 (stereo not shown) , target or system ALDH2 (Homo sapiens, UniProt P05091).
Solution: > 250%

Problem: Find the measured activity at 20 µM: item COc1c(F)cc(CNC(=O)c2cc(-c3ncccc3CO)ccc2OCC2CC2)cc1Cl , target or system ALDH2 (Homo sapiens, UniProt P05091).
Solution: 150 to 250%

Problem: Find the measured activity at 20 µM: item O=C(NCc1ccc(C(F)(F)F)cc1F)c1cc(-c2ccccc2CO)cnc1OCC1CC1 , target or system ALDH2 (Homo sapiens, UniProt P05091).
Solution: 100 to 150%

Problem: Find the measured activity at 20 µM: item COc1ccc(CNC(=O)c2cc(-c3ccccc3C(=O)N(C)C)cnc2OCC2CC2)cc1F , target or system ALDH2 (Homo sapiens, UniProt P05091).
Solution: 100 to 150%

Problem: Find the measured activity at 20 µM: item COc1ccc(CNC(=O)c2cc(-c3ncccc3CO)ccc2OCC(C)C)cc1F , target or system ALDH2 (Homo sapiens, UniProt P05091).
Solution: > 250%

###

Target: ALDH2*1/*2 (Homo sapiens, UniProt P05091, E504K)
Construct: His-tag; made in house; host or cells: E. coli BL21 (pETDuet-1 co-expression)
Sequence (P05091 18-517): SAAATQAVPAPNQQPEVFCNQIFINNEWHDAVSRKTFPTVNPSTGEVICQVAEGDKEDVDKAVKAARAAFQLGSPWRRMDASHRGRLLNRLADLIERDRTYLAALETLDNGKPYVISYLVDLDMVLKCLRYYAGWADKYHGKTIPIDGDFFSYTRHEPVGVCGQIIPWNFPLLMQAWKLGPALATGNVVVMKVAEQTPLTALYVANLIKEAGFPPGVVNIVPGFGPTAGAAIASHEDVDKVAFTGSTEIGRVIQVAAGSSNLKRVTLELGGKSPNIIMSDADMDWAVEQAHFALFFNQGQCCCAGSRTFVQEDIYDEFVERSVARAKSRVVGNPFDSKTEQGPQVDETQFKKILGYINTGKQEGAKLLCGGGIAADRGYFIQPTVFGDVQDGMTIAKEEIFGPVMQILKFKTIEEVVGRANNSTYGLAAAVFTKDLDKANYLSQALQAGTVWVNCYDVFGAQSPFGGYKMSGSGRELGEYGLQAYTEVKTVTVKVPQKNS
Sequence (P05091 18-517 E504K): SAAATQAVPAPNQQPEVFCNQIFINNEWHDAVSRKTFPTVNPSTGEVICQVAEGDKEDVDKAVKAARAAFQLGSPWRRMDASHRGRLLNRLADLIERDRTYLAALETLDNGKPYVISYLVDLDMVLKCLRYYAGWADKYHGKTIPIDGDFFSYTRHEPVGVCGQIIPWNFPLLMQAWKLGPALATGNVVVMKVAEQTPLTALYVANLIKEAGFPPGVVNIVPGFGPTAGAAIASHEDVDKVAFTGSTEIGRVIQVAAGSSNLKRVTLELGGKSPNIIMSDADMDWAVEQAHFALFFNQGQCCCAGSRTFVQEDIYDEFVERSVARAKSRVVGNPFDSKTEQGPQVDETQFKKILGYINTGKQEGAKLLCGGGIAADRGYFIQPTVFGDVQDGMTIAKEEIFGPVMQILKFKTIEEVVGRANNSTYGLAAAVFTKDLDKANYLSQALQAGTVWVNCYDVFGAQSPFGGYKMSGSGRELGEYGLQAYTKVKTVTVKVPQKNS
Assay: ALDH2 enzymatic activity, NADH accumulation at 340 nm, acetaldehyde substrate, heterozygous form
Type: biochemical
Conditions: 10 μM compound; relative to baseline enzymatic activity (100%)
The threshold is inclusive: activity at 10 µM of exactly 300% counts as fulfilled; values below receive not fulfilled.

Here's what some known entries look like.
>  <Compound>
COc1ccc(CNC(=O)c2cc(-c3ccncc3CO)cnc2OCC2CC2)cc1F

>  <Assay system>
ALDH2*1/*2 (Homo sapiens, UniProt P05091, E504K)

>  <Class label>
not fulfilled

$$$$
>  <Compound>
COc1ccc(CNC(=O)c2cc(-c3cccnc3CO)cnc2OCC2CC2)cc1F

>  <Assay system>
ALDH2*1/*2 (Homo sapiens, UniProt P05091, E504K)

>  <Class label>
not fulfilled

$$$$
>  <Compound>
COc1ccc(CNC(=O)c2cc(-c3ccsc3CO)ccc2OCC2CC2)cc1F

>  <Assay system>
ALDH2*1/*2 (Homo sapiens, UniProt P05091, E504K)

>  <Class label>
fulfilled

$$$$
>  <Compound>
COc1ccc(CNC(=O)c2cc(-c3c(CO)cccc3N(C)C)ccc2OCC2CC2)cc1F

>  <Assay system>
ALDH2*1/*2 (Homo sapiens, UniProt P05091, E504K)

>  <Class label>
not fulfilled

$$$$
>  <Compound>
COc1ccc(CNC(=O)c2cc(-c3ccsc3CO)cnc2OCC2CC2)cc1F

>  <Assay system>
ALDH2*1/*2 (Homo sapiens, UniProt P05091, E504K)

>  <Class label>
fulfilled

$$$$

Problem: Tell me whether activity at 10 µM is at least 300% here: COc1ccc(CNC(=O)c2cc(-c3cc(F)ccc3CO)ccc2OCC2CC2)cc1F
Solution: not fulfilled

Problem: Tell me whether activity at 10 µM is at least 300% here: COc1ccc(CNC(=O)c2cc(-c3cscc3CO)cnc2OCC2CC2)cc1F
Solution: not fulfilled

Problem: Tell me whether activity at 10 µM is at least 300% here: COc1ccc(CNC(=O)c2cc(-c3c(CO)cccc3N(C)C)cnc2OCC2CC2)cc1F
Solution: not fulfilled
